polymerase ribozyme fitness (log ratio) reference
B1: TPR t1 (parent)
chain: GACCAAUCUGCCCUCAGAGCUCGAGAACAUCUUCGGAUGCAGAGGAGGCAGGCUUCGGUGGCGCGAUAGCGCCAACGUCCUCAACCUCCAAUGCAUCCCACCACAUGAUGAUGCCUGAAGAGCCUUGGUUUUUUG

variants of: B1; experiment: polymerase ribozyme fitness, log enrichment relative to wild type (log ratio); higher = more active; in vitro selection for triplet polymerase activity
In your answer, state the number alone without any accompanying words.

primarySequence	polymerase ribozyme fitness (log ratio)
GACCAAUCUGCCCUCAGAGCUCGAGAACAUCUUCGGAUGUAGCGGAGGCAGGCUUCGGUGGCGUGAUAGCGCCAACGUCCUCAACCUCCAAUCCAUCCCACCACAUGAUGAUGCAUGAAGAGCCUUGGUUUUUUG [C40U A43C C64U G93C C115A]	-2.31
GACCAAUCUGCCCUCAGAGCUCGAGAACAUCUUCGGAUGCAGAGGAGGCAGGCUUUGGUGGCGCGAUAACGCCAACGUCCUCAACCUCCAAUGCAUCCCACCACAUGAUGAUGCCUGAAGAGCCUUGGUUUUUUG [C56U G69A]	-3.53

# polymerase ribozyme fitness (log ratio) of GACCAAUCUGCCCUCAGAGCUCGAGAACAUCUUCGGAUGCCGAGGAGACAGGCUUCGGUAGCGCGAUAGCGCCAACGUCCUCAACUUCCAAUGCAGCCCACCACAUGAUGAUGCCUGAAGAGCCUUGGUUUUUUG [A41C G48A G60A C86U U96G] = -3.39

# polymerase ribozyme fitness (log ratio) of GACCAAUCCGCCCUCAGAGCUCGAGAACAUCUUCGGAUGCAGAGGAGGCAGGCUUCGGUGGCGCGAUAGCGGCAACGUCCUCAACCUCCAAUGCAUCCCACCACAUGAUGAUGCCUGAAGAGCCUUGGUUUUUUG [U9C C72G] = 0.104
